# assay_notes: Apparent n-Octanol-water partition coefficient, log D at pH 7.4 by HPLC analysis
Listed here: items and their measured logD.
value_kind: logD

CC1(C)Oc2cccc(CN3CCC4(CC3)CCN(C(=O)c3ccnc(N)c3)CC4)c2O1
1.2
CC1(C)C=Cc2cccc(CN3CCC4(CC3)CCN(C(=O)c3ccnc(N)c3)CC4)c2O1
1.5
CC1(C)Cc2cccc(CN3CCC4(CC3)CCN(C(=O)c3ccc(N)cn3)CC4)c2O1
1
CC1(C)Cc2c(CN3CCC4(CC3)CCN(C(=O)c3ccc(N)cn3)CC4)cccc2O1
1.3
CC1(C)CCc2cc(CN3CCC4(CC3)CCN(C(=O)c3ccc(N)cn3)CC4)ccc2O1
1.1
C=C(C)COc1ccccc1CN1CCC2(CC1)CCN(C(=O)c1ccncc1)CC2
1.6
CC(C)COc1ccccc1CN1CCC2(CC1)CCN(C(=O)c1ccncc1)CC2
1.8
CC1(C)CCc2cc(CN3CCC4(CC3)CCN(C(=O)c3ccncn3)CC4)ccc2O1
0.9
COc1ccccc1Oc1ccccc1CN1CCC2(CC1)CCN(C(=O)c1ccc[nH]c1=O)CC2
0.9

###

# measurement_target: Voltage-gated inwardly rectifying potassium channel KCNH2 (Homo sapiens, UniProt Q12809, F656W)
# assay_notes: Inhibition of human recombinant ERG F656W mutant expressed in CHOK1 cells by whole-cell plate-based electrophysiology
# recorded_conditions: cho-k1
value_kind: delta pIC50 wt-mutant

O=C(c1ccncc1)N1CCC2(CCN(Cc3ccccc3OC(F)(F)C(F)F)CC2)CC1
-0.54
CC1(C)Cc2c(CN3CCC4(CC3)CCN(C(=O)c3ccc(N)cn3)CC4)cccc2O1
-0.66
CC1(C)Cc2cccc(CN3CCC4(CC3)CCN(C(=O)c3ncccc3N)CC4)c2O1
-0.32
CC1(C)Oc2cccc(CN3CCC4(CC3)CCN(C(=O)c3ccnc(N)c3)CC4)c2O1
-0.39
CC1(C)Cc2cccc(CN3CCC4(CC3)CCN(C(=O)c3ccc(N)cn3)CC4)c2O1
-0.99
CC1(C)CCc2cc(CN3CCC4(CC3)CCN(C(=O)c3ccncn3)CC4)ccc2O1
-0.14
CC(C)COc1ccccc1CN1CCC2(CC1)CCN(C(=O)c1ccncn1)CC2
-0.42
CC1(C)Cc2c(CN3CCC4(CC3)CCN(C(=O)c3ccnc(N)c3)CC4)cccc2O1
-0.61
COc1ccccc1Oc1ccccc1CN1CCC2(CC1)CCN(C(=O)c1ccc[nH]c1=O)CC2
-0.18
CC1(C)C=Cc2cccc(CN3CCC4(CC3)CCN(C(=O)c3ccnc(N)c3)CC4)c2O1
-0.75
CC1(C)CCc2cc(CN3CCC4(CC3)CCN(C(=O)c3ccc(N)cn3)CC4)ccc2O1
-0.35
COc1ccccc1Oc1cccc(CN2CCC3(CC2)CCN(C(=O)c2ccncn2)CC3)c1
-0.15
CC1Cc2cccc(CN3CCC4(CC3)CCN(C(=O)c3ccncc3)CC4)c2O1 (centres undefined)
-0.58
CC1(C)Oc2c(CN3CCC4(CC3)CCN(C(=O)c3ccc(N)cn3)CC4)cccc2C1(F)F
-1.07

###

Listing of entries alongside the reported delta pIC50 wt-mutant.
# measurement_target: Voltage-gated inwardly rectifying potassium channel KCNH2 (Homo sapiens, UniProt Q12809, Y652F)
# assay_notes: Inhibition of human recombinant ERG Y652F mutant expressed in CHOK1 cells by whole-cell plate-based electrophysiology
# recorded_conditions: cho-k1
value_kind: delta pIC50 wt-mutant

CC1(C)CCc2cc(CN3CCC4(CC3)CCN(C(=O)c3ccc(N)cn3)CC4)ccc2O1
0.47
CC1(C)C=Cc2cccc(CN3CCC4(CC3)CCN(C(=O)c3ccnc(N)c3)CC4)c2O1
0.04
CC(C)COc1ccccc1CN1CCC2(CC1)CCN(C(=O)c1ccncn1)CC2
-0.42
CC1(C)CCc2cc(CN3CCC4(CC3)CCN(C(=O)c3ccncn3)CC4)ccc2O1
0.11
COc1ccccc1Oc1cccc(CN2CCC3(CC2)CCN(C(=O)c2ccncn2)CC3)c1
-0.29
CC1Cc2cccc(CN3CCC4(CC3)CCN(C(=O)c3ccncc3)CC4)c2O1 (centres undefined)
-0.21
CC1(C)Cc2cccc(CN3CCC4(CC3)CCN(C(=O)c3ccc(N)cn3)CC4)c2O1
0.35
CC1(C)Cc2c(CN3CCC4(CC3)CCN(C(=O)c3ccnc(N)c3)CC4)cccc2O1
-0.37
CC1(C)Cc2c(CN3CCC4(CC3)CCN(C(=O)c3ccc(N)cn3)CC4)cccc2O1
0.68

###

# measurement_target: Voltage-gated inwardly rectifying potassium channel KCNH2 (Homo sapiens, UniProt Q12809, F656T)
# assay_notes: Inhibition of human recombinant ERG F656T mutant expressed in CHOK1 cells by whole-cell plate-based electrophysiology
# recorded_conditions: cho-k1
value_kind: delta pIC50 wt-mutant

CC1(C)Cc2c(CN3CCC4(CC3)CCN(C(=O)c3ccc(N)cn3)CC4)cccc2O1
0.2
CC1(C)C=Cc2cccc(CN3CCC4(CC3)CCN(C(=O)c3ccnc(N)c3)CC4)c2O1
1.32
CC(C)COc1ccccc1CN1CCC2(CC1)CCN(C(=O)c1ccncn1)CC2
1.65
O=C(c1ccncc1)N1CCC2(CCN(Cc3ccccc3OC(F)(F)C(F)F)CC2)CC1
1.42
CC1(C)Oc2cccc(CN3CCC4(CC3)CCN(C(=O)c3ccnc(N)c3)CC4)c2O1
1.37
COc1ccccc1Oc1cccc(CN2CCC3(CC2)CCN(C(=O)c2ccncn2)CC3)c1
0.58
CC1(C)Cc2c(CN3CCC4(CC3)CCN(C(=O)c3ccnc(N)c3)CC4)cccc2O1
1.32

###

# measurement_target: Voltage-gated inwardly rectifying potassium channel KCNH2 (Homo sapiens, UniProt Q12809, Y652A)
# assay_notes: Inhibition of human recombinant ERG Y652A mutant expressed in CHOK1 cells by whole-cell plate-based electrophysiology
# recorded_conditions: cho-k1
value_kind: delta pIC50 wt-mutant

CC1(C)CCc2cc(CN3CCC4(CC3)CCN(C(=O)c3ccc(N)cn3)CC4)ccc2O1
0.83
CC1(C)Cc2cccc(CN3CCC4(CC3)CCN(C(=O)c3ncccc3N)CC4)c2O1
1.81
CC1(C)Oc2cccc(CN3CCC4(CC3)CCN(C(=O)c3ccnc(N)c3)CC4)c2O1
1.22
CC1(C)Cc2c(CN3CCC4(CC3)CCN(C(=O)c3ccc(N)cn3)CC4)cccc2O1
1.23
CC1(C)Cc2c(CN3CCC4(CC3)CCN(C(=O)c3ccnc(N)c3)CC4)cccc2O1
0.89
CC(C)COc1ccccc1CN1CCC2(CC1)CCN(C(=O)c1ccncn1)CC2
0.7
CC1(C)CCc2cc(CN3CCC4(CC3)CCN(C(=O)c3ccncn3)CC4)ccc2O1
0.82
COc1ccccc1Oc1cccc(CN2CCC3(CC2)CCN(C(=O)c2ccncn2)CC3)c1
0.98
COc1ccccc1Oc1ccccc1CN1CCC2(CC1)CCN(C(=O)c1ccc[nH]c1=O)CC2
1.19
CC1(C)C=Cc2cccc(CN3CCC4(CC3)CCN(C(=O)c3ccnc(N)c3)CC4)c2O1
0.93
O=C(c1ccncc1)N1CCC2(CCN(Cc3ccccc3OC(F)(F)C(F)F)CC2)CC1
1
CC1Cc2cccc(CN3CCC4(CC3)CCN(C(=O)c3ccncc3)CC4)c2O1 (stereo not drawn)
1.63
CC1(C)Oc2c(CN3CCC4(CC3)CCN(C(=O)c3ccc(N)cn3)CC4)cccc2C1(F)F
0.87

###

# measurement_target: UniProt:Q12809
# assay_notes: Inhibition of wild type human ERG expressed in CHOK1 cells by whole-cell plate-based electrophysiology
pIC50: −log10 of the molar value.
Output 1 for pIC50 not less than 5; output 0 otherwise.

CC1(C)Oc2cccc(CN3CCC4(CC3)CCN(C(=O)c3ccnc(N)c3)CC4)c2O1
0
CC(C)COc1ccccc1CN1CCC2(CC1)CCN(C(=O)c1ccncn1)CC2
1
CC1(C)Cc2cccc(CN3CCC4(CC3)CCN(C(=O)c3ncccc3N)CC4)c2O1
1
CC1(C)Cc2c(CN3CCC4(CC3)CCN(C(=O)c3ccnc(N)c3)CC4)cccc2O1
0
CC1(C)Oc2c(CN3CCC4(CC3)CCN(C(=O)c3ccc(N)cn3)CC4)cccc2C1(F)F
0
CC1(C)Cc2c(CN3CCC4(CC3)CCN(C(=O)c3ccc(N)cn3)CC4)cccc2O1
0
COc1ccccc1Oc1ccccc1CN1CCC2(CC1)CCN(C(=O)c1ccc[nH]c1=O)CC2
0
CC1(C)Cc2cccc(CN3CCC4(CC3)CCN(C(=O)c3ccc(N)cn3)CC4)c2O1
0

Entry source: ChEMBL document CHEMBL1154736
